Just for reference, ChEMBL document CHEMBL3853264 is where these values come from.

experiment: Volume of distribution at steady state in rat at 0.76 mg/kg, iv and 2.3 mg/kg, po; format: ADME, organism-based; details: in vivo, read-out: Vdss
Readout type: Vd (L/kg)
Numbers only, in L/kg.

stdin: Which Vd value is on record for `N#Cc1ccc(Oc2ccc(S(=O)(=O)Nc3ccc(F)cn3)cc2C#N)cc1Cl` ?
stdout: 0.25

====

assay: Half life in dog at 0.1 mg/kg, iv and 3 mg/kg, po; format: ADME, organism-based, Canis lupus familiaris; details: in vivo
Readout type: half-life (h)
Numbers only, in h.

stdin: Query: half-life; subject: Nc1[nH]ncc1-c1cc(Cl)ccc1Oc1cc(F)c(S(=O)(=O)Nc2cscn2)cc1Cl [PF-05089771]
stdout: 1.4
